Values from the supplement of paper PMC10037445

Test system: RAW-Dual
protocol text: IRF Lucia reporter activity, fold change vs agonist alone; cytotoxicity flag (confluency mask): not cytotoxic; higher = enhanced IRF activity
particulars: agonist: 3'3'-cGAMP (STING) 10 ug/mL
In all, about 2,900 compounds were measured (“IRF Lucia reporter activity, fold change vs agonist alone”: median about 0.9, highest 2% from about 2.8 on). The sample holds the highest values, similar compounds and a random draw of the others, so the mix is not that of the screen.
We'd kindly ask you to apply these IRF Lucia reporter activity classes: c1 = under 0.7, c2 = from 0.7 up to 1, c3 = 1 and over

{"columns": ["compound", "target system", "group"],
 "data": [
  ["COc1ccc2cc(-c3[nH]c(-c4ccc(S(C)=O)cc4)nc3-c3ccncc3)ccc2c1 (stereo unspecified) (library stock concentration (final ~1000-fold dilution): 10 mM)", "RAW-Dual", "c1"],
  ["OCCn1cc(-c2ccc3c(c2)CC/C3=N\\O)c(-c2ccncc2)n1 (library stock concentration (final ~1000-fold dilution): 10 mM)", "RAW-Dual", "c1"],
  ["CCc1c2c(nc3ccc(O)cc13)-c1cc3c(c(=O)n1C2)COC(=O)C3(O)CC (stereo unspecified) (library stock concentration (final ~1000-fold dilution): 10 mM)", "RAW-Dual", "c3"],
  ["CCC1(O)C(=O)OCc2c1cc1n(c2=O)Cc2cc3c(CN(C)C)c(O)ccc3nc2-1 (stereo unspecified) (library stock concentration (final ~1000-fold dilution): 10 mM)", "RAW-Dual", "c3"],
  ["Br.Br.Br.Br.Br.Br.c1ccc(CNCc2ccc(CN3CCCNCCNCCCNCC3)cc2)nc1 (library stock concentration (final ~1000-fold dilution): 10 mM water)", "RAW-Dual", "c3"],
  ["CCc1c2c(nc3ccc(OC(=O)N4CCC(N5CCCCC5)CC4)cc13)-c1cc3c(c(=O)n1C2)COC(=O)C3(O)CC.Cl.O.O.O (stereo unspecified) (library stock concentration (final ~1000-fold dilution): 10 mM)", "RAW-Dual", "c2"],
  ["COS(=O)(=O)[O-].Cc1cc2c3c([n+](C)c4ccc(F)cc4c3c1)-c1cc(F)ccc1N2C (library stock concentration (final ~1000-fold dilution): 10 mM)", "RAW-Dual", "c3"],
  ["Cn1cnc2c(F)c(Nc3ccc(Br)cc3F)c(C(=O)NOCCO)cc21 (library stock concentration (final ~1000-fold dilution): 10 mM)", "RAW-Dual", "c2"],
  ["NC1=NC2(c3cc(NC(=O)c4ccc(F)cn4)ccc3F)COCC2CS1 (stereo unspecified) (library stock concentration (final ~1000-fold dilution): 10 mM)", "RAW-Dual", "c3"]
]}

* * *

Test system: RAW-Dual
protocol text: IRF Lucia reporter activity, fold change vs agonist alone; cytotoxicity flag (confluency mask): not cytotoxic; higher = enhanced IRF activity
particulars: agonist: 3'3'-cGAMP (STING) 10 ug/mL
In all, about 2,900 compounds were measured (“IRF Lucia reporter activity, fold change vs agonist alone”: median about 0.9, highest 2% from about 2.8 on). Shown is part of a subset that was picked to be rich in the highest values.

{"columns": ["compound", "target system", "IRF Lucia reporter activity"],
 "data": [
  ["CC1CCC2C(C)C(OC(=O)CCC(=O)O)OC3OC4(C)CCC1C32OO4 (stereo not drawn) (library stock concentration (final ~1000-fold dilution): 10 mM)", "RAW-Dual", 0.638],
  ["CC(C)CCn1c(CN2CCN(C(=O)C3CC3)CC2)nc2c1c(=O)n(C)c(=O)n2C (library stock concentration (final ~1000-fold dilution): 10 mM)", "RAW-Dual", 0.987],
  ["Cc1cc(C#N)cc(C)c1Oc1nc(Nc2ccc(C#N)cc2)nc(N)c1Br (library stock concentration (final ~1000-fold dilution): 10 mM)", "RAW-Dual", 1.09]
]}

* * *

In this section we review reported IRF Lucia reporter activity values for a set of molecules.
System: RAW-Dual
protocol text: IRF Lucia reporter activity, fold change vs agonist alone; cytotoxicity flag (confluency mask): not cytotoxic; higher = enhanced IRF activity
particulars: agonist: 3'3'-cGAMP (STING) 10 ug/mL
In all, about 2,900 compounds were measured (“IRF Lucia reporter activity, fold change vs agonist alone”: median about 0.9, highest 2% from about 2.8 on). The full list was thinned out, with the highest values kept by preference.
value kind: IRF Lucia reporter activity

{"columns": ["molecule", "recorded result"],
 "data": [
  ["O=C(NOCC(O)CO)c1cc(Br)c(F)c(F)c1Nc1ccc(I)cc1F (stereo unspecified) (library stock concentration (final ~1000-fold dilution): 10 mM)", 0.713],
  ["Cn1c(=O)c(F)c(Nc2ccc(I)cc2F)c2c(=O)n(CC(O)CO)cnc21 (stereo unspecified) (library stock concentration (final ~1000-fold dilution): 10 mM)", 0.517],
  ["O=C(NOCC1CC1)c1ccc(F)c(F)c1Nc1ccc(I)cc1Cl (library stock concentration (final ~1000-fold dilution): 10 mM)", 0.525],
  ["O=C(NOCCO)c1ccc2cncn2c1Nc1ccc(I)cc1F (library stock concentration (final ~1000-fold dilution): 10 mM)", 0.814],
  ["Cc1ccsc1C(=CCCN1CCCC(C(=O)O)C1)c1sccc1C (stereo unspecified) (library stock concentration (final ~1000-fold dilution): 10 mM)", 0.964],
  ["COc1cc(C(=O)O)ccc1NC(=O)C1NC(CC(C)(C)C)C(C#N)(c2ccc(Cl)cc2F)C1c1cccc(Cl)c1F (stereo unspecified) (library stock concentration (final ~1000-fold dilution): 10 mM)", 0.62]
]}

* * *

Test system: RAW-Dual
protocol text: IRF Lucia reporter activity, fold change vs agonist alone; cytotoxicity flag (confluency mask): not cytotoxic; higher = enhanced IRF activity
particulars: agonist: 3'3'-cGAMP (STING) 10 ug/mL
Over roughly 2,900 compounds, “IRF Lucia reporter activity, fold change vs agonist alone” has its median near 0.9; the highest 2% begin near 2.8. Many of the other results were omitted from the sample, so the highest values are more common in it than they were.
# cutoff 0.4 applies to IRF Lucia reporter activity; >= gives MET, < gives NOT MET

{"columns": ["molecule", "group"],
 "data": [
  ["Oc1cccc(-c2nc(N3CCOCC3)c3oc4ncccc4c3n2)c1 (library stock concentration (final ~1000-fold dilution): 10 mM)", "NOT MET"],
  ["CCN(C)S(=O)(=O)Nc1ccc(F)c(C(=O)c2c[nH]c3ncc(-c4cnc(C5CC5)nc4)cc23)c1F (library stock concentration (final ~1000-fold dilution): 10 mM)", "NOT MET"],
  ["Cc1nnc(NC(=O)c2nc(S(=O)(=O)Cc3ccc(F)cc3)ncc2Cl)s1 (library stock concentration (final ~1000-fold dilution): 10 mM)", "NOT MET"],
  ["Cc1[nH]c(C=C2C(=O)Nc3ccc(F)cc32)c(C)c1C(=O)NCCN1CCCC1 (library stock concentration (final ~1000-fold dilution): 2 mM)", "NOT MET"],
  ["Nc1ccc(-c2cccc(C(=O)Nc3cnc4nc(N5CCOCC5)oc4c3)n2)cn1 (library stock concentration (final ~1000-fold dilution): 10 mM)", "MET"]
]}

* * *

Test system: RAW-Dual
protocol text: IRF Lucia reporter activity, fold change vs agonist alone; cytotoxicity flag (confluency mask): cytotoxic (confluency <70% of control); higher = enhanced IRF activity
particulars: agonist: 3'3'-cGAMP (STING) 10 ug/mL
The full ranking holds about 2,900 compounds; the median of “IRF Lucia reporter activity, fold change vs agonist alone” is about 0.9, and the highest 2% start at about 2.8. The full list was thinned out, with the highest values kept by preference.
value kind: IRF Lucia reporter activity

{"columns": ["molecule", "recorded result"],
 "data": [
  ["COc1cc2c(cc1O)CCC1C2CCC2(C)C(O)CCC12 (stereo unspecified) (library stock concentration (final ~1000-fold dilution): 10 mM)", 0.205],
  ["Cc1ccc(C2OC(CO)C(O)C(O)C2O)cc1Cc1ccc(-c2ccc(F)cc2)s1.Cc1ccc(C2OC(CO)C(O)C(O)C2O)cc1Cc1ccc(-c2ccc(F)cc2)s1.O (stereo unspecified) (library stock concentration (final ~1000-fold dilution): 10 mM)", 0.0212],
  ["O=C(CCCCCCC(=O)N/N=C/c1ccc(N(c2ccccc2)c2ccccc2)cc1)NO (library stock concentration (final ~1000-fold dilution): 10 mM)", 0.0199],
  ["O=c1cc(N2CCOCC2)oc2c(-c3ccccc3)cccc12 (library stock concentration (final ~1000-fold dilution): 10 mM)", 0.353],
  ["CCOC(=O)c1cnc2ccc(-c3cncc(NS(=O)(=O)c4ccccc4)c3)cn12 (library stock concentration (final ~1000-fold dilution): 10 mM)", 0.284],
  ["COCCNCCc1cccc(Nc2ncc3c(n2)-c2ccccc2C(c2ccccc2F)C3)c1 (stereo unspecified) (library stock concentration (final ~1000-fold dilution): 10 mM)", 0.0166]
]}

* * *

Tested on: RAW-Dual
protocol text: IRF Lucia reporter activity, fold change vs agonist alone; cytotoxicity flag (confluency mask): not cytotoxic; higher = enhanced IRF activity
particulars: agonist: LPS (TLR4) 0.1 ug/mL
Whole data set: some 2,900 compounds, median “IRF Lucia reporter activity, fold change vs agonist alone” near 0.9, cut for the highest 2% near 2.8. The entries come from a sample that favours the highest values as a whole.
# cutoff 1 applies to IRF Lucia reporter activity; >= gives true (1), < gives false (0)

{"columns": ["molecule", "group"],
 "data": [
  ["Cc1cc(Nc2ccc(NC(=O)c3ccc(Nc4ccnc5ccccc45)cc3)cc2)nc(N)n1 (library stock concentration (final ~1000-fold dilution): 10 mM)", "true (1)"],
  ["CNCc1ccc(C)c(NC(=O)c2ccc(Nc3nc(-c4ccccc4)c4ccccc4n3)cc2)c1 (library stock concentration (final ~1000-fold dilution): 10 mM)", "true (1)"],
  ["CN1CCc2c(c3ccccc3n2Cc2ccc(C(=O)NO)cc2)C1 (library stock concentration (final ~1000-fold dilution): 10 mM)", "true (1)"],
  ["CNS(=O)(=O)CC1CCC(N(C)c2ncnc3[nH]ccc23)CC1.O=C(O)/C=C\\C(=O)O (stereo unspecified) (library stock concentration (final ~1000-fold dilution): 10 mM)", "false (0)"],
  ["Cn1cnc2c(F)c(Nc3ccc(Br)cc3Cl)c(C(=O)NOCCO)cc21 (library stock concentration (final ~1000-fold dilution): 10 mM)", "true (1)"],
  ["CC(=O)Nc1ccc(C(=O)Nc2ccccc2N)cc1 (library stock concentration (final ~1000-fold dilution): 10 mM)", "false (0)"],
  ["Cc1nc(Nc2ncc(C(=O)Nc3c(C)cccc3Cl)s2)cc(N2CCN(CCO)CC2)n1.Cl (library stock concentration (final ~1000-fold dilution): 10 mM)", "true (1)"],
  ["CC(C)N1CCN(Cc2cnc(-c3cc(-c4cccc5[nH]ccc45)cc4[nH]ncc34)o2)CC1 (library stock concentration (final ~1000-fold dilution): 10 mM)", "true (1)"],
  ["Cc1ccc(NC(=O)c2ccc(CN3CCN(C)CC3)cc2)cc1Nc1nccc(-c2cccnc2)n1 (library stock concentration (final ~1000-fold dilution): 10 mM)", "false (0)"]
]}
